# target-or-system: DNA-PK (Homo sapiens (Human))
# assay-summary: DNA-PK/Biochemical Assay (FlashPlate kinase assay)
# conditions: 5 μM ATP, 90 min, room temperature

{"compound": "CCN1CCN(CCNC(=O)C(Oc2cc3c(cc2OC)ncc2c3c(-c3ccc(C#N)cc3)nn2C)c2ccc(F)cc2)CC1 (stereo not shown) [Compound 48]", "target-or-system": "DNA-PK (Homo sapiens (Human))", "IC50": "0.1 to 0.5 µM"}
{"compound": "COc1cc2ncc3[nH]nc(-c4ccc(C#N)cc4)c3c2cc1OC [Compound 1]", "target-or-system": "DNA-PK (Homo sapiens (Human))", "IC50": "< 0.1 µM"}
{"compound": "COc1cc2ncc3c(c(-c4ccc(C#N)cc4)nn3C)c2cc1OCc1cncs1 [Compound 43]", "target-or-system": "DNA-PK (Homo sapiens (Human))", "IC50": "< 0.1 µM"}
{"compound": "COc1cc2ncc3c(c(-c4ccc(C#N)cc4)nn3C)c2cc1OC(C(=O)NOCC#N)c1ccc(F)cc1 (stereo not shown) [Compound 51]", "target-or-system": "DNA-PK (Homo sapiens (Human))", "IC50": "0.1 to 0.5 µM"}
{"compound": "COc1cc2ncc3c(c(-c4ccc(C#N)cc4)nn3C)c2cc1OCc1ccc(F)cc1 [Compound 15]", "target-or-system": "DNA-PK (Homo sapiens (Human))", "IC50": "< 0.1 µM"}
{"compound": "COc1cc2ncc3c(c(-c4ccc(C#N)cc4)nn3C)c2cc1OCCN(C)C [Compound 40]", "target-or-system": "DNA-PK (Homo sapiens (Human))", "IC50": "> 0.1 µM"}
{"compound": "COc1cc2ncc3c(c(-c4ccc(C#N)cc4)nn3CC(N)=O)c2cc1OC [Compound 68]", "target-or-system": "DNA-PK (Homo sapiens (Human))", "IC50": "0.1 to 0.5 µM"}

Where these numbers come from: patent US8802712B2
